RESULT TYPE: absorbance maximum (nm)
Only the number, expressed in nm, is required.

The value of absorbance maximum measured for the compound CC1(C)C(=CC=C2CCCC(C=CC3=[N+](CCC[N+](C)(C)C)c4ccc(S(=O)(=O)O)cc4C3(C)C)=C2SCCOCCOCCC(=O)NCCCC[C@@H]2NC(=O)[C@@H](Cc3ccc(O)cc3)NC(=O)[C@H](CC(=O)O)NC(=O)CNC(=O)[C@H](CCCNC(=N)N)NC2=O)N(CCC[N+](C)(C)C)c2ccc(S(=O)(=O)O)cc21 turned out to be 784

====

RESULT TYPE: quantum yield (QY) (%)
Only the number, expressed in %, is required.

The value of quantum yield (QY) measured for the molecule CC1(C)C(=CC=C2CCCC(C=CC3=[N+](CCC[N+](C)(C)C)c4ccc(S(=O)(=O)O)cc4C3(C)C)=C2SCCOCCOCCC(=O)NCCCC[C@@H]2NC(=O)[C@@H](Cc3ccc(O)cc3)NC(=O)[C@H](CC(=O)O)NC(=O)CNC(=O)[C@H](CCCNC(=N)N)NC2=O)N(CCC[N+](C)(C)C)c2ccc(S(=O)(=O)O)cc21 turned out to be 8.52

====

# Tested on: FaDu cells
# METHOD DESCRIPTION: Cell viability assay (CCK-8)
# Format: cell-based
# SETUP CONDITIONS: FaDu cells; 24 h treatment at 37 °C, then 24 h in new medium; absorbance 450 nm; n = 5; read-out: IC50 (cytotoxicity, CCK-8)
RESULT TYPE: pIC50
// field semantics: pIC50 = negative decimal log of concentration (mol/L)

The value of pIC50 measured for the compound Br.C[N+]1=C(/C=C2\C(=O)C(/C=C3/N(CCC[N+](C)(C)C)c4ccc(F)cc4C3(C)C)=C2[O-])C(C)(C)c2ccccc21.[I-] [OCTL14] turned out to be 4.38
